# assay-overview: in vivo
# test-settings: rat, po, 2 mg/kg
quantity-measured: bioavailability (%)
Your answer is read as %, so omit the unit and give the number.

Query :: GET /values?readout=bioavailability&item= C[C@@H]1CCN(C(=O)CC#N)C[C@@H]1N(C)c1ncnc2[nH]ccc12
Result :: 87

----------
# assay-overview: physchem
# test-settings: octanol/PBS buffer, pH 7.2
Entries and their logD at 1 h, 10000 µM values follow.

The following compounds have reported results that may help.
Cc1nc2cnc3[nH]ccc3c2n1[C@H]1CC[C@H](O)CC1	1.4
Cc1nc2cnc3[nH]ccc3c2n1[C@@H]1CCNC[C@@H]1F (relative stereo)	0.7
Cc1nc2cnc3[nH]ccc3c2n1[C@H]1CCCNC1	0.6
CC(=O)N[C@H]1CC[C@H](n2c(C)nc3cnc4[nH]ccc4c32)CC1	1.1
Cc1nc2cnc3[nH]ccc3c2n1[C@H]1CC[C@H](NCCC#N)CC1	0.9
Cc1nc2cnc3[nH]ccc3c2n1[C@H]1CC[C@H](NS(C)(=O)=O)CC1	1.2

Next item in the queue.
Query :: Which logD at 1 h, 10000 µM reading was recorded for the compound Cc1nc2cnc3[nH]ccc3c2n1[C@@H]1CCCC[C@H]1O (relative stereo) ?
Result :: 1.6

----------
# assay-overview: physchem
# test-settings: buffer, pH 7.4
quantity-measured: solubility thermodynamic at 24 h

// solved cases for solubility thermodynamic at 24 h follow
Cc1nc2cnc3[nH]ccc3c2n1[C@@H]1CCNC[C@H]1F (relative stereo)	> 1500 µM
Cc1nc2cnc3[nH]ccc3c2n1[C@H]1CC[C@H](NCCC#N)CC1	> 1500 µM
COC(=O)N[C@H]1CC[C@H](n2c(C)nc3cnc4[nH]ccc4c32)CC1	40 µM

Query :: Can you share its solubility thermodynamic at 24 h? I mean this molecule: Cc1nc2cnc3[nH]ccc3c2n1C1CCNCC1
Result :: > 1500 µM

----------
Each entry below carries its recorded solubility thermodynamic at 24 h.
# assay-overview: physchem
# test-settings: buffer, pH 2

// worked examples, solubility thermodynamic at 24 h included
Cc1nc2cnc3[nH]ccc3c2n1[C@H]1CC[C@H](NCCC#N)CC1	> 5 mM
Cc1nc2cnc3[nH]ccc3c2n1C1CCNCC1	> 5 mM

Now look at this entry.
Query :: Which solubility thermodynamic at 24 h is listed for COC(=O)N[C@H]1CC[C@H](n2c(C)nc3cnc4[nH]ccc4c32)CC1 ?
Result :: 2.3 mM

----------
# assay-overview: in vitro
# test-settings: Sprague-Dawley, rat, hepatocytes
quantity-measured: half-life at 1 µM

# annotated cases, reported half-life at 1 µM shown
Cc1nc2cnc3[nH]ccc3c2n1[C@@H]1CCNC[C@H]1F (relative stereo)	1.6 h
COC(=O)N[C@H]1CC[C@H](n2c(C)nc3cnc4[nH]ccc4c32)CC1	3.5 h
Cc1nc2cnc3[nH]ccc3c2n1[C@H]1CC[C@H](NCCC#N)CC1	> 8 h

Here is another molecule to look at.
Query :: Item under review: Cc1nc2cnc3[nH]ccc3c2n1C1CCNCC1 . Reported half-life at 1 µM?
Result :: > 8 h

----------
The compounds listed here are annotated with their clearance.
# assay-overview: in vivo
# test-settings: Sprague-Dawley, rat, iv, 0.4 mg/kg
Write down the numeric answer in mL/min/kg and omit the unit.

Query :: // clearance lookup, key: Cc1nc2cnc3[nH]ccc3c2n1[C@@H]1CCNC[C@H]1F (relative stereo)
Result :: 40

Query :: Recorded clearance of Cc1nc2cnc3[nH]ccc3c2n1C1CCNCC1 , please.
Result :: 43

Query :: Which value of clearance has been reported for COC(=O)N[C@H]1CC[C@H](n2c(C)nc3cnc4[nH]ccc4c32)CC1 in the records?
Result :: 40

Query :: Recorded clearance for Cc1nc2cnc3[nH]ccc3c2n1[C@H]1CC[C@H](NCCC#N)CC1 , please?
Result :: 80
